# Test system: IGROV1
# ASSAY PROTOCOL: Biomarker study proliferation (CellTiter-Glo)
# Type: cell-based
# EXPERIMENTAL CONDITIONS: Homo sapiens, IGROV-1, 168 h, read-out: Anti-proliferation effect IC50
MEASURE: IC50 (nM)
Report as a plain number; the unit nM is understood.

Request the reported IC50 associated with Cc1cc(NC2CCN(C(=O)O[C@H]3CCN(C(=O)/C=C/CN(C)C)C3)CC2)n2ncc(C(C)C)c2n1 72

---

# System: SNU1196
# ASSAY PROTOCOL: Biomarker study proliferation (CellTiter-Glo)
# Type: cell-based
# EXPERIMENTAL CONDITIONS: 168 h, read-out: Anti-proliferation effect IC50
MEASURE: IC50 (nM)
Report as a plain number; the unit nM is understood.

Request the reported IC50 associated with Cc1cc(NC2CCN(C(=O)O[C@H]3CCN(C(=O)/C=C/CN(C)C)C3)CC2)n2ncc(C(C)C)c2n1 43

---

# System: TOV21G
# ASSAY PROTOCOL: Biomarker study proliferation (CellTiter-Glo)
# Type: cell-based
# EXPERIMENTAL CONDITIONS: Homo sapiens, 168 h, read-out: Anti-proliferation effect IC50
MEASURE: pIC50
# pIC50 = -log10(concentration in molar units)

Request the reported pIC50 associated with Cc1cc(NC2CCN(C(=O)O[C@H]3CCN(C(=O)/C=C/CN(C)C)C3)CC2)n2ncc(C(C)C)c2n1 7.21

---

# Tested on: HUH7
# ASSAY PROTOCOL: Biomarker study proliferation (CellTiter-Glo)
# Format: cell-based
# EXPERIMENTAL CONDITIONS: Homo sapiens, Huh-7, 168 h, read-out: Anti-proliferation effect IC50
MEASURE: IC50 (nM)
Report as a plain number; the unit nM is understood.

Given the entry Cc1cc(NC2CCN(C(=O)O[C@H]3CCN(C(=O)/C=C/CN(C)C)C3)CC2)n2ncc(C(C)C)c2n1 , what IC50 was observed with HUH7? 175

---

# System: NCIH2228
# ASSAY PROTOCOL: Biomarker study proliferation (CellTiter-Glo)
# Assay type: cell-based
# EXPERIMENTAL CONDITIONS: Homo sapiens, NCI-H2228, 168 h, read-out: Anti-proliferation effect IC50
# Procedure: Cancer cell lines are profiled to evaluate the anti-proliferative activity of a test compound in-vitro. […] After 15 minutes, luminescence is read using a plate reader. Data is analyzed in Excel and graphed in GraphPad Prism. Statistical analysis and p value is calculated using Mann-Whitney nonparameteric t tests using GraphPad Prism. […]
MEASURE: IC50 (nM)
Report as a plain number; the unit nM is understood.

Given the entry Cc1cc(NC2CCN(C(=O)O[C@H]3CCN(C(=O)/C=C/CN(C)C)C3)CC2)n2ncc(C(C)C)c2n1 , what IC50 was observed with NCIH2228? 276

---

# Test system: SNU869
# ASSAY PROTOCOL: Biomarker study proliferation (CellTiter-Glo)
# Type: cell-based
# EXPERIMENTAL CONDITIONS: 168 h, read-out: Anti-proliferation effect IC50
MEASURE: pIC50
# pIC50 = -log10(concentration in molar units)

Request the reported pIC50 associated with Cc1cc(NC2CCN(C(=O)O[C@H]3CCN(C(=O)/C=C/CN(C)C)C3)CC2)n2ncc(C(C)C)c2n1 [Example 1] 7.28
